TARGET OF ASSAY: PI3K-α (Homo sapiens, UniProt P42336)
Sequence (P42336 whole entry, species assumed): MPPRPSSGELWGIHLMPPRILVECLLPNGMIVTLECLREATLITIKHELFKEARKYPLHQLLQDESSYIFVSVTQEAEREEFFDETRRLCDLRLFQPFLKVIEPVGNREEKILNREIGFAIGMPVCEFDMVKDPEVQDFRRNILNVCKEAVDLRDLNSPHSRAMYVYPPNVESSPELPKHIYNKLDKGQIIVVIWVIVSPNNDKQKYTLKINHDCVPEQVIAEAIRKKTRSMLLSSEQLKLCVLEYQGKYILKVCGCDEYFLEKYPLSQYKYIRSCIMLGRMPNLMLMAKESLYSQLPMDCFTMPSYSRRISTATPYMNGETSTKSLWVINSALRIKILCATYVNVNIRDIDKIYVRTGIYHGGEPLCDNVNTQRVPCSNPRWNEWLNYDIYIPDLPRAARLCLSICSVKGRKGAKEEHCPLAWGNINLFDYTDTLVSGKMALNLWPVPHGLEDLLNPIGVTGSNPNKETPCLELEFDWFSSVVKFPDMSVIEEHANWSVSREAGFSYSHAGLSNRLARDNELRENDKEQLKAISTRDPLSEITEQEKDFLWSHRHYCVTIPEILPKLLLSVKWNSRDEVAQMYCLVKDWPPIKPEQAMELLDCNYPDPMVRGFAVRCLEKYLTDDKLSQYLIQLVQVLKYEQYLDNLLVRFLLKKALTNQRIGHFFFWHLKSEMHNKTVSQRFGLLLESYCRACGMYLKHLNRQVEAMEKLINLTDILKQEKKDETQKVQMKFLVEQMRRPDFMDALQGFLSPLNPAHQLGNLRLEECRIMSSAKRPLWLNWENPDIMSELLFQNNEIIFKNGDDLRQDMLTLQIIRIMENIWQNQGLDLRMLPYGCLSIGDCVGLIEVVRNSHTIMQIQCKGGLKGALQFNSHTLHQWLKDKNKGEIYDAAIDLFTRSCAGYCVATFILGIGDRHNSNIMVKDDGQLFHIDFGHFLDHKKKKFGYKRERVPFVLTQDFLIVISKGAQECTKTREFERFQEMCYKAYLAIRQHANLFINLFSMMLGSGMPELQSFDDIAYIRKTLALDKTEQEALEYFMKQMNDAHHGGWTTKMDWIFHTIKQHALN
Sequence (P27986 whole entry partner, species assumed): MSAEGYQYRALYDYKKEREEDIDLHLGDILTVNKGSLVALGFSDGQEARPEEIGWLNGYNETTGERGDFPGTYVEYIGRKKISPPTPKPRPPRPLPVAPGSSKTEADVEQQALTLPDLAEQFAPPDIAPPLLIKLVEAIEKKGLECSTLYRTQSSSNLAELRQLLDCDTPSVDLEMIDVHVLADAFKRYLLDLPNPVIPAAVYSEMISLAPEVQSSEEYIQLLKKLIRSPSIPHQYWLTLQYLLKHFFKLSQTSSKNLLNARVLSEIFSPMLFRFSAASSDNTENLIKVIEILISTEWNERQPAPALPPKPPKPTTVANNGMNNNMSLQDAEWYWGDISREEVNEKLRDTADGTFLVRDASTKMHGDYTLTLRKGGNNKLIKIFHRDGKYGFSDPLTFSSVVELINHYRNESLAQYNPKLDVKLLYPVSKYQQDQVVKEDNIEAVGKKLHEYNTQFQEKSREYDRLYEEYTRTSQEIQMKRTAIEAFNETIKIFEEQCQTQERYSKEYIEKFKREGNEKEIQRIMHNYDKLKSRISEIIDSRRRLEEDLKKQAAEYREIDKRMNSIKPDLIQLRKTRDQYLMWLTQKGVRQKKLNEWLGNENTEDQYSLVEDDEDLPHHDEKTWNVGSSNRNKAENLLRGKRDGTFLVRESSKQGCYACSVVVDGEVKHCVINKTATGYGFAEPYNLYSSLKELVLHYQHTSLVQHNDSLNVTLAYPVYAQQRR
ASSAY PROCEDURE: PI3K-alpha fluorescence polarization assay
STATED CONDITIONS: read-out: IC50 PI3Kα
# log10 IC50 per record follows
EXPERIMENTAL READOUT: log10 IC50 (log10 of the value in nM)

COMPOUND: C[C@H]1COCCN1c1nc(-c2ccc(NC(=O)Nc3ccc(C(=O)O)cc3)cc2)nc(N2CCOC[C@@H]2C)n1
TARGET OF ASSAY: PI3K-α (Homo sapiens, UniProt P42336)
log10 IC50: 2.86
--
COMPOUND: O=C(Nc1ccc(C(=O)O)cc1)Nc1ccc(-c2nc(N3CCCCC3)nc(N3CCOCC3)n2)cc1
TARGET OF ASSAY: PI3K-α (Homo sapiens, UniProt P42336)
log10 IC50: 1.60
--
COMPOUND: CN1CCN(CC(=O)Nc2ccc(NC(=O)Nc3ccc(-c4nc(N5C6CCC5COC6)nc(N5C6CCC5COC6)n4)cc3)cc2)CC1
TARGET OF ASSAY: PI3K-α (Homo sapiens, UniProt P42336)
log10 IC50: 1.81
--
COMPOUND: CS(=O)(=O)N1CC2CN(c3nc(-c4ccc(NC(=O)Nc5ccncc5)cc4)nc(N4CCOCC4)n3)CC(C1)O2
TARGET OF ASSAY: PI3K-α (Homo sapiens, UniProt P42336)
log10 IC50: 2.88
--
COMPOUND: O=C(Nc1ccncc1)Nc1ccc(-c2nc(N3CCOCC3)nc(N3CC4COC(C3)O4)n2)cc1 (stereo not drawn)
TARGET OF ASSAY: PI3K-α (Homo sapiens, UniProt P42336)
log10 IC50: 1.00
--
COMPOUND: O=C(Nc1ccncc1)Nc1ccc(-c2nc(N3CCC(NCc4ccccc4)CC3)nc(N3CC4CCC(C3)O4)n2)cc1
TARGET OF ASSAY: PI3K-α (Homo sapiens, UniProt P42336)
log10 IC50: 2.25
--
COMPOUND: O=C(Nc1ccc(-c2nc(OCC3CCNCC3)nc(N3CC4CCC(C3)O4)n2)cc1)Nc1cccnc1
TARGET OF ASSAY: PI3K-α (Homo sapiens, UniProt P42336)
log10 IC50: 2.72
--
COMPOUND: O=C(Nc1ccc(C(=O)NCCN2CCCCC2)cc1)Nc1ccc(-c2nc(N3CCOCC3)nc(N3C4CCC3COC4)n2)cc1
TARGET OF ASSAY: PI3K-α (Homo sapiens, UniProt P42336)
log10 IC50: 0.30
--
COMPOUND: CCCCc1nc(-c2ccc(NC(=O)Nc3ccc(CO)cc3)cc2)nc(N2CCOCC2)n1
TARGET OF ASSAY: PI3K-α (Homo sapiens, UniProt P42336)
log10 IC50: 1.04
--
COMPOUND: CN(C)[C@@H]1CCN(C(=O)c2ccc(NC(=O)Nc3ccc(-c4nc(N5CCOCC5)nc(N5CCOCC5)n4)cc3)cc2)C1
TARGET OF ASSAY: PI3K-α (Homo sapiens, UniProt P42336)
log10 IC50: 0.00
--
COMPOUND: Oc1cccc(-c2nc(N3CCOCC3)nc(N3C4CCC3COC4)n2)c1
TARGET OF ASSAY: PI3K-α (Homo sapiens, UniProt P42336)
log10 IC50: 2.08
--
COMPOUND: CN1CCC(NC(=O)Nc2ccc(-c3nc(N4CCOCC4)nc(N4CCOCC4)n3)cc2)CC1
TARGET OF ASSAY: PI3K-α (Homo sapiens, UniProt P42336)
log10 IC50: 3.13
--
COMPOUND: COC(=O)Nc1ccc(-c2nc(-c3ccc(NC(=O)Nc4ccc(N5CCN(C)CC5)cc4)cc3)nc(N3CC4CCC(C3)O4)n2)cc1
TARGET OF ASSAY: PI3K-α (Homo sapiens, UniProt P42336)
log10 IC50: 2.76
--
COMPOUND: CNC(=O)Nc1ccc(-c2nc(Nc3ccc(N4CCNCC4)cc3)nc(N3CC4CCC(C3)O4)n2)cc1
TARGET OF ASSAY: PI3K-α (Homo sapiens, UniProt P42336)
log10 IC50: 1.87
--
COMPOUND: CN(C)CCNC(=O)c1ccc(NC(=O)Nc2ccc(-c3nc(N4CCCC4)nc(N4CCOCC4)n3)cc2)cc1
TARGET OF ASSAY: PI3K-α (Homo sapiens, UniProt P42336)
log10 IC50: 0.95
